Tested on: Pseudomonas aeruginosa
Experiment: Antibacterial activity against Pseudomonas aeruginosa using 1 x 10^4 CFU/ml inoculum after 24 hrs by microdilution method
Assay type: functional
value type: MIC (×10⁻² umol)
Your answer should be a plain number; it is taken to be in ×10⁻² umol.

[ask] What value of MIC on Pseudomonas aeruginosa does C/C(=N\NC(=O)C1=C(O)c2ccccc2S(=O)(=O)N1C)c1ccc(N)cc1 have?
[reply] 24.3

[ask] Entry to check: C/C(=N\NC(=O)C1=C(O)c2ccccc2S(=O)(=O)N1)c1ccc(O)cc1
[reply] 22.6

[ask] Entry to check: CN[C@@H]1[C@H](O[C@H]2[C@H](O[C@H]3[C@H](O)[C@@H](O)[C@H](N=C(N)N)[C@@H](O)[C@@H]3N=C(N)N)O[C@@H](C)[C@]2(O)C=O)O[C@@H](CO)[C@H](O)[C@H]1O
[reply] 16.5

[ask] Entry to check: COc1cccc(/C(C)=N/NC(=O)C2=C(O)c3ccccc3S(=O)(=O)N2)c1
[reply] 26.7

[ask] Entry to check: C/C(=N\NC(=O)C1=C(O)c2ccccc2S(=O)(=O)N1C)c1ccccc1Cl
[reply] 32.6

[ask] Entry to check: C/C(=N\NC(=O)C1=C(O)c2ccccc2S(=O)(=O)N1)c1cccc(O)c1
[reply] 21.2

[ask] Entry to check: C/C(=N\NC(=O)C1=C(O)c2ccccc2S(=O)(=O)N1)c1ccc(N)cc1
[reply] 24.5

[ask] Entry to check: C/C(=N\NC(=O)C1=C(O)c2ccccc2S(=O)(=O)N1C)c1ccc(Cl)cc1
[reply] 32.3

[ask] Entry to check: C/C(=N\NC(=O)C1=C(O)c2ccccc2S(=O)(=O)N1C)c1ccc(F)cc1F
[reply] 30.5

[ask] Entry to check: COc1ccc(/C(C)=N/NC(=O)C2=C(O)c3ccccc3S(=O)(=O)N2C)cc1
[reply] 29.2

[ask] Entry to check: C/C(=N\NC(=O)C1=C(O)c2ccccc2S(=O)(=O)N1)c1ccc(F)cc1F
[reply] 30.6

[ask] Entry to check: COc1ccc(/C(C)=N/NC(=O)C2=C(O)c3ccccc3S(=O)(=O)N2)cc1
[reply] 29.3

[ask] Entry to check: C/C(=N\NC(=O)C1=C(O)c2ccccc2S(=O)(=O)N1)c1ccccc1O
[reply] 20.6

[ask] Entry to check: C/C(=N\NC(=O)C1=C(O)c2ccccc2S(=O)(=O)N1C)c1ccc(I)cc1
[reply] 30.5

[ask] Entry to check: C/C(=N\NC(=O)C1=C(O)c2ccccc2S(=O)(=O)N1C)c1ccccc1O
[reply] 20.2

[ask] Entry to check: C/C(=N\NC(=O)C1=C(O)c2ccccc2S(=O)(=O)N1C)c1ccc(O)cc1
[reply] 22.1

[ask] Entry to check: C/C(=N\NC(=O)C1=C(O)c2ccccc2S(=O)(=O)N1)c1ccc(Cl)cc1
[reply] 32.4

[ask] Entry to check: C/C(=N\NC(=O)C1=C(O)c2ccccc2S(=O)(=O)N1C)c1cccc(O)c1
[reply] 21

[ask] Entry to check: COc1cccc(/C(C)=N/NC(=O)C2=C(O)c3ccccc3S(=O)(=O)N2C)c1
[reply] 26.8

[ask] Entry to check: C/C(=N\NC(=O)C1=C(O)c2ccccc2S(=O)(=O)N1)c1ccc(I)cc1
[reply] 30.9

====

System: Aspergillus fumigatus
Experiment: Antifungal activity against Aspergillus fumigatus using 1 x 10^5 spore/100 uL after 72 hrs by microdilution method
Assay type: functional
Rule: MIC below 70 ×10⁻² umol gives True. Equal to or above 70 ×10⁻² umol gives False.

[ask] I wonder whether C/C(=N\NC(=O)C1=C(O)c2ccccc2S(=O)(=O)N1C)c1ccc(Br)cc1 has MIC below 70 ×10⁻² umol. Can you tell?
[reply] False

[ask] Entry to check: C/C(=N\NC(=O)C1=C(O)c2ccccc2S(=O)(=O)N1C)c1ccc(I)cc1
[reply] False

[ask] Entry to check: COc1cccc(/C(C)=N/NC(=O)C2=C(O)c3ccccc3S(=O)(=O)N2)c1
[reply] False

[ask] Entry to check: C/C(=N\NC(=O)C1=C(O)c2ccccc2S(=O)(=O)N1C)c1ccc(Cl)cc1
[reply] False

[ask] Entry to check: C/C(=N\NC(=O)C1=C(O)c2ccccc2S(=O)(=O)N1)c1ccc(N)cc1
[reply] False

[ask] Entry to check: NNC(=O)C1=C(O)c2ccccc2S(=O)(=O)N1
[reply] False

[ask] Entry to check: C/C(=N\NC(=O)C1=C(O)c2ccccc2S(=O)(=O)N1)c1ccccc1Br
[reply] False

[ask] Entry to check: c1ccc(-c2ccc(C(c3ccccc3)n3ccnc3)cc2)cc1 (stereo not given)
[reply] True

[ask] Entry to check: C/C(=N\NC(=O)C1=C(O)c2ccccc2S(=O)(=O)N1)c1ccccc1O
[reply] False

[ask] Entry to check: CN1C(C(=O)NN)=C(O)c2ccccc2S1(=O)=O
[reply] False

[ask] Entry to check: C/C(=N\NC(=O)C1=C(O)c2ccccc2S(=O)(=O)N1)c1ccc(Cl)cc1
[reply] False

[ask] Entry to check: C/C(=N\NC(=O)C1=C(O)c2ccccc2S(=O)(=O)N1)c1ccc(Br)cc1
[reply] False

[ask] Entry to check: C/C(=N\NC(=O)C1=C(O)c2ccccc2S(=O)(=O)N1)c1ccc(O)cc1
[reply] False

[ask] Entry to check: C/C(=N\NC(=O)C1=C(O)c2ccccc2S(=O)(=O)N1C)c1cccc(O)c1
[reply] False

[ask] Entry to check: C/C(=N\NC(=O)C1=C(O)c2ccccc2S(=O)(=O)N1C)c1ccccc1O
[reply] False

[ask] Entry to check: C/C(=N\NC(=O)C1=C(O)c2ccccc2S(=O)(=O)N1)c1ccccc1Cl
[reply] False

[ask] Entry to check: C/C(=N\NC(=O)C1=C(O)c2ccccc2S(=O)(=O)N1)c1ccc(Cl)cc1Cl
[reply] True

[ask] Entry to check: COc1ccc(/C(C)=N/NC(=O)C2=C(O)c3ccccc3S(=O)(=O)N2C)cc1
[reply] False

[ask] Entry to check: C/C(=N\NC(=O)C1=C(O)c2ccccc2S(=O)(=O)N1C)c1ccc(Cl)cc1Cl
[reply] True

====

Answer each item with its documented MFC.
Test system: Aspergillus flavus
Test: Antifungal activity against Aspergillus flavus using 1 x 10^5 spore/100 uL assessed as 99.5% fungal killing of original inoculum after 72 hrs by microdilution method
Type: functional
Your answer should be a plain number; it is taken to be in ×10⁻² umol.

[ask] What value of MFC on Aspergillus flavus does C/C(=N\NC(=O)C1=C(O)c2ccccc2S(=O)(=O)N1C)c1ccc(Cl)cc1 have?
[reply] 162.3

[ask] Entry to check: C/C(=N\NC(=O)C1=C(O)c2ccccc2S(=O)(=O)N1)c1ccc(Cl)c(Cl)c1
[reply] 150.3

[ask] Entry to check: C/C(=N\NC(=O)C1=C(O)c2ccccc2S(=O)(=O)N1)c1ccc(F)cc1F
[reply] 168.7

[ask] Entry to check: COc1cccc(/C(C)=N/NC(=O)C2=C(O)c3ccccc3S(=O)(=O)N2C)c1
[reply] 188.9

[ask] Entry to check: c1ccc(-c2ccc(C(c3ccccc3)n3ccnc3)cc2)cc1 (stereo unspecified)
[reply] 64

[ask] Entry to check: C/C(=N\NC(=O)C1=C(O)c2ccccc2S(=O)(=O)N1)c1ccc(N)cc1
[reply] 175.9

[ask] Entry to check: C/C(=N\NC(=O)C1=C(O)c2ccccc2S(=O)(=O)N1C)c1ccc(Cl)cc1Cl
[reply] 143.1

[ask] Entry to check: COc1cccc(/C(C)=N/NC(=O)C2=C(O)c3ccccc3S(=O)(=O)N2)c1
[reply] 198.4

[ask] Entry to check: C/C(=N\NC(=O)C1=C(O)c2ccccc2S(=O)(=O)N1C)c1ccc(N)cc1
[reply] 166.3

[ask] Entry to check: C/C(=N\NC(=O)C1=C(O)c2ccccc2S(=O)(=O)N1C)c1ccc(F)cc1F
[reply] 149.4

====

Answer each item with its documented MFC.
System: Aspergillus flavus
Assay: Antifungal activity against Aspergillus flavus using 1 x 10^5 spore/100 uL assessed as 99.5% fungal killing of original inoculum after 72 hrs by microdilution method
Assay type: functional
Your answer should be a plain number; it is taken to be in ×10⁻² umol.

[ask] Recorded MFC for C/C(=N\NC(=O)C1=C(O)c2ccccc2S(=O)(=O)N1)c1ccc(I)cc1 , please?
[reply] 179.8

[ask] Entry to check: C/C(=N\NC(=O)C1=C(O)c2ccccc2S(=O)(=O)N1C)c1ccc(I)cc1
[reply] 190.7

[ask] Entry to check: C/C(=N\NC(=O)C1=C(O)c2ccccc2S(=O)(=O)N1)c1ccc(Br)cc1
[reply] 173.2

[ask] Entry to check: C/C(=N\NC(=O)C1=C(O)c2ccccc2S(=O)(=O)N1)c1ccccc1Cl
[reply] 164.6

[ask] Entry to check: C/C(=N\NC(=O)C1=C(O)c2ccccc2S(=O)(=O)N1C)c1ccc(Br)cc1
[reply] 189.8
